Tested on: Escherichia coli TOP10
ASSAY_TEXT: shrunken log2 fold change of peptide-encoding DNA abundance (4.5 h post-induction vs induction); higher = less antimicrobial activity (less host growth inhibition)
EXPERIMENTAL_PARAMETERS: time post-induction: 4.5 h; library: site-saturation at positions 5, 18, 19, 20
Kindly state shrunken log2 fold change for each of the entries shown.

Field: example entries. Status: answers known.
RRIRYRPPRLPRPRPRPITPPRP
-0.174
RRIRCRPPRLPRPRPRPDKAPRP
-0.0544

Now let's try a different one.
Name the recorded shrunken log2 fold change of the item RRIRCRPPRLPRPRPRPLKSPRP in your answer.
-0.154

====

Kindly state shrunken log2 fold change for each of the entries shown.
System: Escherichia coli TOP10
ASSAY_TEXT: shrunken log2 fold change of peptide-encoding DNA abundance (4.5 h post-induction vs induction); higher = less antimicrobial activity (less host growth inhibition)
EXPERIMENTAL_PARAMETERS: time post-induction: 4.5 h; library: site-saturation at positions 5, 18, 19, 20
One number for each entry.

Field: example entries. Status: answers known.
RRIRVRPPRLPRPRPRPLSMPRP
-0.0717
RRIRYRPPRLPRPRPRPWVMPRP
-0.195
RRIRWRPPRLPRPRPRPAKMPRP
0.519
RRIRSRPPRLPRPRPRPDKFPRP
-0.143
RRIRGRPPRLPRPRPRPNYVPRP
0.216
RRIRDRPPRLPRPRPRPPDGPRP
0.577
RRIRPRPPRLPRPRPRPNAKPRP
-0.0129
RRIRSRPPRLPRPRPRPHHRPRP
-0.43

# map each sequence to its shrunken log2 fold change
1. RRIRCRPPRLPRPRPRPTMQPRP
2. RRIRNRPPRLPRPRPRPLQEPRP
3. RRIRFRPPRLPRPRPRPWKRPRP
4. RRIRWRPPRLPRPRPRPLKVPRP
5. RRIRKRPPRLPRPRPRPLNFPRP

-0.0203
-0.0474
-0.0222
-0.496
0.103

# map each sequence to its shrunken log2 fold change
1. RRIRTRPPRLPRPRPRPHGLPRP
2. RRIRTRPPRLPRPRPRPWWDPRP
3. RRIRSRPPRLPRPRPRPQQEPRP
4. RRIRHRPPRLPRPRPRPTEHPRP
5. RRIRLRPPRLPRPRPRPGFHPRP
6. RRIRGRPPRLPRPRPRPWIMPRP

[-0.034, 0.132, -0.0806, -0.243, 0.0368, -0.209]

====

Test system: Escherichia coli TOP10
ASSAY_TEXT: shrunken log2 fold change of peptide-encoding DNA abundance (4.5 h post-induction vs induction); higher = less antimicrobial activity (less host growth inhibition)
EXPERIMENTAL_PARAMETERS: time post-induction: 4.5 h; library: site-saturation at positions 5, 18, 19, 20
MEASURE: shrunken log2 fold change
Answers are plain numbers.

Field: example entries. Status: answers known.
RRIRCRPPRLPRPRPRPEEMPRP
0.028
RRIRKRPPRLPRPRPRPPIWPRP
0.106
RRIRFRPPRLPRPRPRPTYCPRP
-0.339
RRIRARPPRLPRPRPRPTNDPRP
0.297
RRIRCRPPRLPRPRPRPPDWPRP
0.416

# map each sequence to its shrunken log2 fold change
1. RRIRVRPPRLPRPRPRPHCWPRP
2. RRIRGRPPRLPRPRPRPDACPRP

1: 0.0268; 2: 1.23

# map each sequence to its shrunken log2 fold change
1. RRIRHRPPRLPRPRPRPLQSPRP
2. RRIRKRPPRLPRPRPRPNMTPRP
3. RRIRFRPPRLPRPRPRPIGCPRP
4. RRIRWRPPRLPRPRPRPMNNPRP
5. RRIRMRPPRLPRPRPRPSLHPRP
6. RRIRRRPPRLPRPRPRPEQWPRP

1. -0.0699
2. 0.0525
3. -0.111
4. -0.606
5. -0.222
6. -0.173

# map each sequence to its shrunken log2 fold change
1. RRIRWRPPRLPRPRPRPWWNPRP
2. RRIRMRPPRLPRPRPRPTPYPRP
3. RRIRDRPPRLPRPRPRPYWWPRP
4. RRIRRRPPRLPRPRPRPCFWPRP
5. RRIRHRPPRLPRPRPRPNTGPRP

-0.0562
0.2
0.021
0.406
0.121

====

System: Escherichia coli TOP10
ASSAY_TEXT: shrunken log2 fold change of peptide-encoding DNA abundance (4.5 h post-induction vs induction); higher = less antimicrobial activity (less host growth inhibition)
EXPERIMENTAL_PARAMETERS: time post-induction: 4.5 h; library: site-saturation at positions 5, 18, 19, 20
Kindly state shrunken log2 fold change for each of the entries shown.

Field: example entries. Status: answers known.
RRIRKRPPRLPRPRPRPGDRPRP
0.886
RRIRQRPPRLPRPRPRPLQSPRP
-0.0698
RRIRQRPPRLPRPRPRPQFAPRP
-0.00983

# map each sequence to its shrunken log2 fold change
1. RRIRWRPPRLPRPRPRPNSYPRP
2. RRIRARPPRLPRPRPRPRCWPRP
3. RRIRGRPPRLPRPRPRPPIRPRP
4. RRIRNRPPRLPRPRPRPRFGPRP
5. RRIRYRPPRLPRPRPRPFQWPRP
6. RRIRFRPPRLPRPRPRPQLGPRP
7. RRIRYRPPRLPRPRPRPEKTPRP
8. RRIRNRPPRLPRPRPRPSNCPRP

[-0.197, 0.601, 0.849, 0.399, 0.0299, 0.1, 0.0635, -0.801]

====

Tested on: Escherichia coli TOP10
ASSAY_TEXT: shrunken log2 fold change of peptide-encoding DNA abundance (4.5 h post-induction vs induction); higher = less antimicrobial activity (less host growth inhibition)
EXPERIMENTAL_PARAMETERS: time post-induction: 4.5 h; library: site-saturation at positions 5, 18, 19, 20
MEASURE: shrunken log2 fold change
Numbers only.

Field: example entries. Status: answers known.
RRIRSRPPRLPRPRPRPYLVPRP
-0.123
RRIRQRPPRLPRPRPRPLNVPRP
-0.0218
RRIRGRPPRLPRPRPRPAEDPRP
0.0402
RRIRIRPPRLPRPRPRPKFVPRP
-0.0693
RRIRGRPPRLPRPRPRPTRMPRP
0.571
RRIRMRPPRLPRPRPRPWRSPRP
0.166
RRIRLRPPRLPRPRPRPNEKPRP
-0.00697
RRIRARPPRLPRPRPRPVQAPRP
0.312
RRIRNRPPRLPRPRPRPDDIPRP
0.0399
RRIRMRPPRLPRPRPRPLDRPRP
0.816

# map each sequence to its shrunken log2 fold change
1. RRIRHRPPRLPRPRPRPEQDPRP
2. RRIRARPPRLPRPRPRPFKVPRP
3. RRIRRRPPRLPRPRPRPYYYPRP

[0.057, 0.0346, -0.9]

# map each sequence to its shrunken log2 fold change
1. RRIRERPPRLPRPRPRPQVMPRP
2. RRIRWRPPRLPRPRPRPYRKPRP
3. RRIRHRPPRLPRPRPRPKMDPRP
4. RRIRWRPPRLPRPRPRPRMNPRP

[-0.303, 0.0527, -0.014, -0.111]

# map each sequence to its shrunken log2 fold change
1. RRIRHRPPRLPRPRPRPPLCPRP
2. RRIRRRPPRLPRPRPRPCIHPRP
3. RRIRNRPPRLPRPRPRPANFPRP
4. RRIRPRPPRLPRPRPRPLGCPRP
5. RRIRFRPPRLPRPRPRPRYLPRP
6. RRIRGRPPRLPRPRPRPPFLPRP
7. RRIRLRPPRLPRPRPRPTRTPRP
8. RRIRKRPPRLPRPRPRPDQFPRP

1. 0.0792
2. -0.402
3. -0.193
4. 0.376
5. -0.0779
6. 0.444
7. 0.243
8. -0.0391

# map each sequence to its shrunken log2 fold change
1. RRIRMRPPRLPRPRPRPAHYPRP
2. RRIRTRPPRLPRPRPRPIWCPRP
3. RRIRFRPPRLPRPRPRPETNPRP

1. -0.248
2. -0.0116
3. 0.127

====

Tested on: Escherichia coli TOP10;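 further: peptides expressed intracellularly from a pBAD plasmid library in pooled LB shake-flask culture, induced with 0.3% L-arabinose, DNA abundance read by NGS, three biological replicates, DESeq2 with apeglm shrinkage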
ASSAY_TEXT: shrunken log2 fold change of peptide-encoding DNA abundance (4.5 h post-induction vs induction); higher = less antimicrobial activity (less host growth inhibition)
EXPERIMENTAL_PARAMETERS: time post-induction: 4.5 h; library: site-saturation at positions 5, 18, 19, 20
MEASURE: shrunken log2 fold change
Give bare numbers.

Field: example entries. Status: answers known.
RRIRHRPPRLPRPRPRPYNEPRP
0.0187
RRIRARPPRLPRPRPRPYLIPRP
-0.659
RRIRLRPPRLPRPRPRPERGPRP
0.538

Name the recorded shrunken log2 fold change of the item RRIRRRPPRLPRPRPRPQPWPRP in your answer.
0.067
